- testMethodNotes: qHTS of pediatric cancer cell lines to identify multiple opportunities for drug repurposing: Primary screen for NB1643 cells (AID 1347099); also: nearly all actives have a fitted effect of over 50% in size
- measurementSetup: NB1643 neuroblastoma viability, CellTiter-Glo luminescence, 48 h; series mostly up to 46 µM
Records with an inconclusive call do not appear. Calls of active or inactive are those of the source. Calls follow the shape of the dose curve; as a rule, active = well fitted cell-killing curve with a large enough effect; inconclusive = small, poorly fitted or top-dose-only effect; inactive = no such curve, though single readings can be large or run the other way.
Use one of these outcomes when replying: True = active, False = inactive

CC(C)(O)C(=O)Nc1ccc([N+](=O)[O-])c(C(F)(F)F)c1: True

Give the logged outcome of this assay for the following compound: NC1CC1c1ccccc1 (centres undefined)
False

Give the logged outcome of this assay for the following compound: Nc1ccc([N+](=O)[O-])cc1
False

Give the logged outcome of this assay for the following compound: CC1=C(C(=O)O)N2C(=O)[C@@H](N)[C@H]2SC1
False

Give the logged outcome of this assay for the following compound: CC(C)[C@H]1C(=O)N[C@H](CO)Cc2c[nH]c3cccc(c23)N1C
False

Give the logged outcome of this assay for the following compound: C[C@@H]1CC[C@@]2(OC1)O[C@H]1C[C@H]3[C@@H]4CC=C5C[C@@H](O[C@@H]6O[C@H](CO)[C@@H](O[C@@H]7O[C@@H](C)[C@H](O)[C@@H](O)[C@@H]7O)[C@H](O)[C@@H]6O[C@@H]6O[C@@H](C)[C@H](O)[C@@H](O)[C@@H]6O)CC[C@]5(C)[C@@H]4CC[C@]3(C)[C@@H]1[C@H]2C
True

====

- testMethodNotes: Quantitative High-Throughput drug screen in 47 multiple myeloma cell lines against the NCATS MIPE library collection: Delta47_JCRB cell viability assay (AID 1918925; also: nearly all actives have a fitted effect of over 45% in size)
- measurementSetup: Delta47 myeloma viability, CellTiter-Glo ATP, 48 h; series mostly up to 45.8 µM
Records with an inconclusive call do not appear. Calls of active or inactive are those of the source. Calls follow the shape of the dose curve; as a rule, active = well fitted cell-killing curve with a large enough effect; inconclusive = small, poorly fitted or top-dose-only effect, or effect the other way; inactive = no such curve, though single readings can be large or run the other way.
Use one of these outcomes when replying: TRUE = active, FALSE = inactive

NC1CC1c1ccccc1 (configuration not stated): FALSE
CN[C@@H]1Cc2cccc3[nH]c(=O)n(c23)C1: FALSE
O=C(Nc1ccncc1)C(=O)c1cn(Cc2ccc(Cl)cc2)c2ccccc12: TRUE
CCOC(=O)Nc1ccc(NCc2ccc(F)cc2)cc1N: TRUE
CCNC(=O)CC1N=C(c2ccc(Cl)cc2)c2cc(OC)ccc2-n2c(C)nnc21 (configuration not stated): TRUE
CCN1C[C@]2(OC(=O)c3ccccc3NC(C)=O)CC[C@H](OC)[C@@]34[C@H]5CC6[C@@H](OC)C[C@](O)(C(C[C@@H]23)[C@@H]14)[C@@]5(O)[C@@H]6OC: FALSE

Give the logged outcome of this assay for the following molecule: COc1ccc2c(c[n+](C)c3c4cc5c(cc4ccc23)OCO5)c1OC
TRUE

====

- testMethodNotes: Immunotoxin (HA22) sensitization/mitigation study. Vehicle arm (PBS) (AID 1159510)
- measurementSetup: cancer cells viability with PBS vehicle (HA22 study); series mostly up to 46.1 µM
Calls of active or inactive are those of the source. The rule behind the calls is not given here.
Use one of these outcomes when replying: 1 (yes) = active, 0 (no) = inactive

Answered examples (3):
COc1cc2c(cc1OC)CN(CCc1ccc(NC(=O)c3cccc4c(=O)c5cccc(OC)c5[nH]c34)cc1)CC2: 1 (yes)
Cc1ccccc1C(C(=O)NC1CCCC1)N(C(=O)Cn1cnc2ccccc21)c1cccc(F)c1 (centres undefined): 1 (yes)
Cc1cn(-c2cc(NC(=O)c3ccc(C)c(Nc4nccc(-c5cccnc5)n4)c3)cc(C(F)(F)F)c2)cn1: 1 (yes)

Give the logged outcome of this assay for the following molecule: Cc1cccc(C#Cc2ccccc2)n1
0 (no)

Give the logged outcome of this assay for the following molecule: CC[C@@H](C)[C@H](NC(=O)[C@H](CC1CCCCC1)NC(=O)c1ccno1)C(=O)N1CCC2(CCc3ccccc32)CC1
0 (no)

Give the logged outcome of this assay for the following molecule: CN1CCN(c2cc(C(=O)Nc3ccc4c(c3)-c3c(c(C(N)=O)nn3-c3ccc(F)cc3)CC4)c(Cl)cn2)CC1
1 (yes)

Give the logged outcome of this assay for the following molecule: O=C(C=Cc1ccc(/C=C/C(=O)Nc2ccc(C3=NCCN3)cc2)cc1)Nc1ccc(C2=NCCN2)cc1
0 (no)

Give the logged outcome of this assay for the following molecule: CCOC(=O)C(C)Oc1cccc2c(=O)n(CC(=O)Nc3ccc4c(c3)OCCO4)ccc12 (centres undefined)
0 (no)

Give the logged outcome of this assay for the following molecule: CCN(CC)CCCCNc1nc2cc(Cl)c(Cl)cc2nc1-c1ccc(-c2cccs2)s1
1 (yes)

====

- testedSystem: Voltage-gated inwardly rectifying potassium channel KCNH2 (Homo sapiens)
- testMethodNotes: qHTS Assay for Small Molecule Inhibitors of the Human hERG Channel Activity (AID 588834);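 also: U2OS cells transduced with hERG by BacMam; top concentration of the series differs between compounds; lower thallium flux fluorescence means stronger hERG block; nearly all actives have a fitted effect of over 50% in size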
- measurementSetup: U2OS BacMam hERG, FluxOR thallium flux fluorescence; series mostly up to 46.1 µM
Results filed as inconclusive are left out. The source made the active and inactive calls. Calls come from the whole dose curve; as a rule, active = well fitted inhibition curve with a large enough effect; inconclusive = small, poorly fitted or top-dose-only effect; inactive = flat fitted curve, though single readings scatter.
endpointName: Potency

The following compounds have reported results that may help.
Cc1cc(O)ccc1Cl: inactive
Nc1ccc(Cl)cc1: inactive
CC(C)(O)C(=O)Nc1ccc([N+](=O)[O-])c(C(F)(F)F)c1: inactive
O=C1C(I)=CC(=C(c2cc(I)c(O)c(I)c2)c2ccccc2C(=O)O)C=C1I: inactive

Which value of Potency has been reported for Cc1nccc2c1[nH]c1ccccc12 in the records?
inactive

Which value of Potency has been reported for O=[N+]([O-])/N=C1\NCCN1Cc1ccc(Cl)nc1 in the records?
inactive

====

- testMethodNotes: qHTS for Inhibitors of the Functional Ribonucleoprotein Complex (vRNP) of Lymphocytic Choriomeningitis Arenaviruses (LCMV): Viability assay - alamar blue signal for LCMV Primary Screen (AID 1347085); also: nearly all actives have a fitted effect of over 80% in size
- measurementSetup: alamar blue viability counter-screen, LCMV vRNP screen cells; series mostly up to 57.5 µM
Records with an inconclusive call do not appear. The source made the active and inactive calls. Calls come from the whole dose curve; tested in HEK293 reporter line.
Use one of these outcomes when replying: active, inactive

Answered examples (5):
CCOP(=O)(OCC)C(C)NC(=O)N(CCCl)N=O (stereo not given): inactive
O=c1[nH]c2ccc(Cl)cc2c(N[C@@H]2CN3CCC2CC3)c1-c1nc2ccccc2[nH]1: active
CCOC(=O)c1c(C)n(C)c2ccc(O)cc12: inactive
Cn1c(Nc2ccc(C(F)(F)F)cc2)nc2cc(Oc3ccnc(-c4ncc(C(F)(F)F)[nH]4)c3)ccc21: active
CC(C)(O)C=CC(=O)[C@](C)(O)[C@H]1[C@H](O)C[C@]2(C)[C@@H]3CC=C4[C@@H](C=C(O)C(=O)C4(C)C)[C@]3(C)C(=O)C[C@@]12C: active

Give the logged outcome of this assay for the following molecule: N#Cc1c(O)c2c(-c3ccc(-c4ccccc4O)cc3)csc2[nH]c1=O
inactive

====

- testMethodNotes: qHTS of pediatric cancer cell lines to identify multiple opportunities for drug repurposing: Primary screen for NB1643 cells (AID 1347099); also: nearly all actives have a fitted effect of over 50% in size
- measurementSetup: NB1643 neuroblastoma viability, CellTiter-Glo luminescence, 48 h; series mostly up to 46 µM
Records with an inconclusive call do not appear. Calls of active or inactive are those of the source. Calls come from the whole dose curve; as a rule, active = well fitted cell-killing curve with a large enough effect; inconclusive = small, poorly fitted or top-dose-only effect; inactive = no such curve, though single readings can be large or run the other way.
Use one of these outcomes when replying: label 1 = active, label 0 = inactive

Answered examples (2):
Cc1c(C(=O)c2cccc3ccccc23)c2cccc3c2n1[C@H](CN1CCOCC1)CO3: label 1
CC(C)(O)C=CC(=O)[C@](C)(O)[C@H]1[C@H](O)C[C@]2(C)[C@@H]3CC=C4[C@@H](C=C(O)C(=O)C4(C)C)[C@]3(C)C(=O)C[C@@]12C: label 1

Next:
Give the logged outcome of this assay for the following compound: CN[C@@H](C)[C@H](O)c1ccccc1
label 0

====

- testedSystem: Voltage-gated inwardly rectifying potassium channel KCNH2 (Homo sapiens)
- testMethodNotes: qHTS Assay for Small Molecule Inhibitors of the Human hERG Channel Activity (AID 588834);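 also: U2OS cells transduced with hERG by BacMam; top concentration of the series differs between compounds; lower thallium flux fluorescence means stronger hERG block; nearly all actives have a fitted effect of over 50% in size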
- measurementSetup: U2OS BacMam hERG, FluxOR thallium flux fluorescence; series mostly up to 46.1 µM
- Protocol: NIH Chemical Genomics Center [NCGC] National Institutes of Environmental Health Sciences [NIEHS] National Toxicology Program [NTP] We have developed a 1536-well cell-based assay for quantitative high throughput screening (qHTS) to determine in vitro hERG channel blockage as a measure of cardio toxicity with small molecules. […] 13. Read fluorescence Intensity on FDSS for 10 Sec with 1 sec interval […] 15. Read fluorescence Intensity on FDSS for 2 min with 1 sec interval […]
Results filed as inconclusive are left out. Calls of active or inactive are those of the source. Calls come from the whole dose curve; as a rule, active = well fitted inhibition curve with a large enough effect; inconclusive = small, poorly fitted or top-dose-only effect; inactive = flat fitted curve, though single readings scatter.
Use one of these outcomes when replying: y (active), n (inactive)

S=C(NC1CCCCC1)N1CCC(c2cnc[nH]2)CC1: n
CC[N+]1(CCOC(=O)C(O)(c2ccccc2)c2ccccc2)CCCCC1: n

Next:
Give the logged outcome of this assay for the following compound: CN(C)[C@@H]1C(=O)C(C(N)=O)=C(O)[C@@]2(O)C(=O)C3=C(O)c4c(O)cccc4[C@@](C)(O)[C@H]3[C@H](O)[C@@H]12
n

====

- testMethodNotes: qHTS for Inhibitors of the Functional Ribonucleoprotein Complex (vRNP) of Lymphocytic Choriomeningitis Arenaviruses (LCMV): Viability assay - alamar blue signal for LCMV Primary Screen (AID 1347085); also: nearly all actives have a fitted effect of over 80% in size; also: potency is read from the fitted curve at half-maximal effect
- measurementSetup: alamar blue viability counter-screen, LCMV vRNP screen cells; series mostly up to 57.5 µM
Results filed as inconclusive are left out. The source made the active and inactive calls. Calls come from the whole dose curve; tested in HEK293 reporter line.
endpointName: Potency

O=C(O)[C@H](Cc1c[nH]c2ccccc12)N1C(=O)c2ccccc2C1=O: inactive
CC(=O)N[C@@H](CCC(N)=O)C(=O)O: inactive
C=C[C@@H]1CN2CCC1C[C@H]2[C@H](O)c1ccnc2ccccc12 (some centres undefined): inactive
CCO/N=C(\CC)C1=C(O)CC(c2c(C)cc(C)cc2C)CC1=O (centres undefined): inactive
COc1nc(-c2ccc3c(c2)OCO3)n(-c2ccc(NC(=O)CSc3ccccc3)cc2)n1: inactive

Which value of Potency has been reported for CN(C)C1CCN(C(=O)c2ccc(NC(=O)Nc3nc(N4CCOCC4)nc(N4CCOCC4)n3)cc2)CC1 in the records?
0.0611 µM (active)
